// merged dataset of IC50 values, system = BRD4 (Homo sapiens (Human), UniProt O60885), multiple refs
measureName: IC50

> print(dat)
                                   molecule  reportedvalue
1  Cc1nn(C2CC2)c2c1[C@@H](c1ccc(Cl)cc1)N(c1cc(C)c3nnc(C)n3n1)C2=O        < 11 nM
2  Cc1nnn2c1-c1ccccc1N(c1cccc(C(O)CO)c1)CC2 (stereo not shown)       < 100 nM
3  Cc1nn(C2CC2)c2c1C(c1ccc(Cl)cc1)N(c1cc(N(C)C(=O)OC(C)(C)C)c3nnc(C)n3n1)C2=O (stereo not shown)     > 37000 nM
4  COc1ncccc1-c1nc2c(n1C(C)C)[C@@H](c1ccc(Cl)cc1)N(c1cc(C)c3nnn(C)c3n1)C2=O        < 11 nM
